TARGET UNDER TEST: hTDO2 (Homo sapiens)
Construct: endogenous in cells
Sequence (P48775 whole entry): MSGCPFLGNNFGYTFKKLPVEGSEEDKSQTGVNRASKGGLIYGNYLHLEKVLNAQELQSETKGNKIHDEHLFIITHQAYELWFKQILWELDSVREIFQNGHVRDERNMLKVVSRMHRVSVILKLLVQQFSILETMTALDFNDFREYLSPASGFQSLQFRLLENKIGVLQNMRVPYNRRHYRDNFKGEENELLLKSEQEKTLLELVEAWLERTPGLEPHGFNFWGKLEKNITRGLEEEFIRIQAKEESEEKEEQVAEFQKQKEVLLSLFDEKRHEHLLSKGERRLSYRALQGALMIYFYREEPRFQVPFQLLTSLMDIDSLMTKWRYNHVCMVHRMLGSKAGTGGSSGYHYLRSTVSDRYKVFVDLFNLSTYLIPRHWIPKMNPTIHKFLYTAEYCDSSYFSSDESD
RUN DESCRIPTION: Cellular assay for TDO2 activity determination in A172 cells
STUDY CONDITIONS: human glioblastoma A172 cells naturally expressing hTDO2; overnight incubation; kynurenine by absorbance at 480 nm
MEASUREMENT NAME: log10(IC50) (log10 of the value in nM)

{"MOLECULE": "NCC1NS(=O)(=O)c2ccc(-c3c[nH]c4cc(F)ccc34)cc21 (single isomer, unassigned; (+)) [Example 19]", "TARGET UNDER TEST": "hTDO2 (Homo sapiens)", "log10(IC50)": 2.49}
{"MOLECULE": "CC(=O)N1CCC(N2C(C)c3cc(-c4c[nH]c5cc(F)ccc45)ccc3S2(=O)=O)C1 (single isomer, unassigned; (-)) [Example 75]", "TARGET UNDER TEST": "hTDO2 (Homo sapiens)", "log10(IC50)": 1.69}
{"MOLECULE": "CCCC1NS(=O)(=O)c2ccc(-c3c[nH]c4cc(F)ccc34)cc21 (single isomer, unassigned; (-)) [Example 7]", "TARGET UNDER TEST": "hTDO2 (Homo sapiens)", "log10(IC50)": 3.16}
{"MOLECULE": "CC1c2cc(-c3c[nH]c4cc(F)ccc34)ccc2S(=O)(=O)N1CCO (single isomer, unassigned; (+)) [Example 63]", "TARGET UNDER TEST": "hTDO2 (Homo sapiens)", "log10(IC50)": 1.85}
{"MOLECULE": "O=S1(=O)NC2(CC2)c2cc(-c3c[nH]c4cc(F)ccc34)ccc21", "TARGET UNDER TEST": "hTDO2 (Homo sapiens)", "log10(IC50)": 2.37}
{"MOLECULE": "CC1c2cc(-c3c[nH]c4cc(F)ccc34)ccc2S(=O)(=O)N1CCC(=O)N1CCNCC1 (single isomer, unassigned; (+)) [Example 49]", "TARGET UNDER TEST": "hTDO2 (Homo sapiens)", "log10(IC50)": 1.96}
{"MOLECULE": "CCC1NS(=O)(=O)c2ccc(-c3c[nH]c4cc(F)ccc34)cc21 (single isomer, unassigned; (+)) [Example 3]", "TARGET UNDER TEST": "hTDO2 (Homo sapiens)", "log10(IC50)": 1.81}
{"MOLECULE": "CC1c2cc(-c3c[nH]c4cc(F)ccc34)ccc2S(=O)(=O)N1CC1CCN(C)CC1 (single isomer, unassigned; (+)) [Example 80]", "TARGET UNDER TEST": "hTDO2 (Homo sapiens)", "log10(IC50)": 1.75}
{"MOLECULE": "Cn1cnc(CN2C(CO)c3cc(-c4c[nH]c5cc(F)ccc45)ccc3S2(=O)=O)n1 (single isomer, unassigned; (+)) [Example 130]", "TARGET UNDER TEST": "hTDO2 (Homo sapiens)", "log10(IC50)": 2.05}
{"MOLECULE": "CC1c2cc(-c3c[nH]c4cc(F)ccc34)ccc2S(=O)(=O)N1CCN1CCNCC1=O (single isomer, unassigned; (-)) [Example 65]", "TARGET UNDER TEST": "hTDO2 (Homo sapiens)", "log10(IC50)": 2.74}
{"MOLECULE": "CC1c2cc(-c3c[nH]c4cc(F)ccc34)ccc2S(=O)(=O)N1C1CCNC(=O)C1 (single isomer, unassigned; (-)) [Example 119]", "TARGET UNDER TEST": "hTDO2 (Homo sapiens)", "log10(IC50)": 2.59}
{"MOLECULE": "O=S1(=O)c2ccc(-c3c[nH]c4cc(F)ccc34)cc2CN1[C@@H]1CCOC1", "TARGET UNDER TEST": "hTDO2 (Homo sapiens)", "log10(IC50)": 2.58}
{"MOLECULE": "CCC1NS(=O)(=O)c2ccc(-c3c[nH]c4cc(F)ccc34)cc21 (single isomer, unassigned; (-)) [Example 4]", "TARGET UNDER TEST": "hTDO2 (Homo sapiens)", "log10(IC50)": 2.43}
{"MOLECULE": "CNC(=O)CN1C(C)c2cc(-c3c[nH]c4cc(F)ccc34)ccc2S1(=O)=O (single isomer, unassigned; (-)) [Example 111]", "TARGET UNDER TEST": "hTDO2 (Homo sapiens)", "log10(IC50)": 1.65}
{"MOLECULE": "C[C@@H]1NS(=O)(=O)c2ccc(-c3c[nH]c4cc(F)ccc34)cc21 (single isomer, unassigned)", "TARGET UNDER TEST": "hTDO2 (Homo sapiens)", "log10(IC50)": 2.04}
{"MOLECULE": "CC1c2cc(-c3c[nH]c4cc(F)ccc34)ccc2S(=O)(=O)N1C1CNC(=O)C1 (single isomer, unassigned; (-)) [Example 125]", "TARGET UNDER TEST": "hTDO2 (Homo sapiens)", "log10(IC50)": 2.70}

Reference for the values: patent US9873690B2
